Target: Aspartate--tRNA(Asp/Asn) ligase (Mycobacterium tuberculosis (strain ATCC 25618 / H37Rv)) (UniProt P9WFW3); also: in the data most compounds retested in dose-response had high values
Sequence (P9WFW3 whole entry): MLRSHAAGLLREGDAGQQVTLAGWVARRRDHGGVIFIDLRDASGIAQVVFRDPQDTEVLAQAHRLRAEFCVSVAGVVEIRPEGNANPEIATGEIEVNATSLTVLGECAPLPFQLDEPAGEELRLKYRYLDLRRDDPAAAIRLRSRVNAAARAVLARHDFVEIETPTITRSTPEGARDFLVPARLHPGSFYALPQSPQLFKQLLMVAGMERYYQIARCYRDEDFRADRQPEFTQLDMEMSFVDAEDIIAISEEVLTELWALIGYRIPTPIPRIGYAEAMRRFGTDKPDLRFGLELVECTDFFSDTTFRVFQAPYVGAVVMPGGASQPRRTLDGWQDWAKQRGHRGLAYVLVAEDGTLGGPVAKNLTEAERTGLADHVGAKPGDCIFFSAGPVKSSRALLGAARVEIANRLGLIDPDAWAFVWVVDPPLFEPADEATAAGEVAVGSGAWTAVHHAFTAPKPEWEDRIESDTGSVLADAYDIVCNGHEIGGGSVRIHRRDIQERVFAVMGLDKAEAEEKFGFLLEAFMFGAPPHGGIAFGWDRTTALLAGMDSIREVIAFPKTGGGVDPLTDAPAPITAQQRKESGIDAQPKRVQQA
Test: Assay for Asp RNA synthetase-1 from Mycobacterium tuberculosis
Format: functional
Parameters: scale not given: direction of the effect not stated beside the values
Settings: 30 µM
Property: Percent Effect (%)
Your answer is read as %, so omit the unit and give the number.

Cc1nc(N2CCN(C(=O)C(C)(C)C)CC2)cc(-n2cnc(C)c2C)n1: 0.832
CSc1ccc(NS(=O)(=O)c2cnn(C)c2)cn1: 1.57
CCn1ccnc1CN1CCCC(CO)(Cc2cccc(Cl)c2)C1 (stereo not given): 10
O=C(Nc1ccc(F)c(Br)c1)N1CCCC1: 4.74
O=C(Nc1cccc(OCc2cccc(F)c2)c1)C1COCCO1 (stereo not given): 0.563
O=c1ccc(-c2ccccc2F)nn1CCN1CCCS1(=O)=O: -1.45
O=C(NCc1cc(O)ncn1)C1CCOc2ccccc2C1 (stereo not given): -6.23
CC(CN1CCOCC1)NCc1nncn1C1CCCCC1 (stereo not given): 0.0836

-- ask // fetch Percent Effect given entry CCn1c(C)nnc1CN(C)C1CCN(CCCOC)C1 (stereo not given)
-- reply 1.79

-- ask // fetch Percent Effect given entry "O=C(c1ccco1)N1CCC2(CC1)C(=O)NCCN2CC1CC1"
-- reply 10.6

-- ask // fetch Percent Effect given entry "Cc1nc(-c2ccsc2)ccc1C(=O)NCCC(=O)N1CCCC1"
-- reply 0.0333

-- ask // fetch Percent Effect given entry "Cc1cc(CN2CCc3nn(C(C)C)c(=O)cc3C2)no1"
-- reply -1.25

-- ask // fetch Percent Effect given entry CCNC(=O)N1CCCCC1CCNS(C)(=O)=O (stereo not given)
-- reply -3.62

-- ask // fetch Percent Effect given entry O=C(c1cccc(Cn2ccnc2)c1)N1CCCC(n2ccnc2)C1 (stereo not given)
-- reply -0.874

-- ask // fetch Percent Effect given entry "Cn1nc2c(cc1=O)CN(Cc1nnc(-c3ccc(F)cc3)o1)CC2"
-- reply 19.5

-- ask // fetch Percent Effect given entry "COCCN(Cc1ccoc1)C(=O)c1cccnc1SC"
-- reply 1.65

-- ask // fetch Percent Effect given entry "O=C(c1cnccn1)N1CCN(Cc2csc(-c3ccccc3)n2)CC1"
-- reply 1.34

-- ask // fetch Percent Effect given entry COc1ccc(CNC(=O)NCC2CCOC2)c(C(F)(F)F)c1 (stereo not given)
-- reply -4.04

-- ask // fetch Percent Effect given entry CN(CC1CCCO1)C1CCN(CCc2ccccn2)CC1 (stereo not given)
-- reply 3.12

----------
Biological target: Shiga toxin 2 (Escherichia coli O157:H7) (UniProt P09385+P09386)
Experiment: E. coli 0.157:H7 Shiga Toxin SOP - stx2 screening assay
Format: functional
Set-up: scale not given: direction of the effect not stated beside the values
Details: 30 µM
Property: Percent Effect
Answers without a unit are incomplete; give the number and then its unit.

Cc1scc(C(=O)N2CCC3(CCCN(C)C3=O)C2)c1-c1ccccc1 (stereo not drawn): 8.94%
Cc1nc(CN2CCC(N(C)Cc3noc(C4CC4)n3)C2)oc1C (stereo not drawn): -11%
O=C(NCCC1=CCCCC1)C1CCCN(c2ccc3nncn3n2)C1 (stereo not drawn): -5.94%

-- ask // fetch Percent Effect given entry COc1ccc2c(c1)OCC(CNC(=O)c1ccc(=O)n(C)c1)C2 (stereo not drawn)
-- reply 0.424%

-- ask // fetch Percent Effect given entry Cc1cnn(CC2CCCN2C(=O)c2ccc(OC(C)C)nc2)c1 (stereo not drawn)
-- reply -35%

----------
Biological target: Shiga toxin 2 (Escherichia coli O157:H7) (UniProt P09385+P09386)
Test: E. coli 0.157:H7 Shiga Toxin SOP - stx2 screening assay
Type: functional
Set-up: scale not given: direction of the effect not stated beside the values
Conditions: 30 µM
Property: Percent Effect (%)
Your answer is read as %, so omit the unit and give the number.

CNC(=O)CN1CCC(NC(=O)N(C)Cc2cc(C)on2)CC1: 19

-- ask // fetch Percent Effect given entry "O=C(c1ccc(F)cc1F)N1CC[C@H](O)[C@@H](N2CCOCC2)CC1"
-- reply -21.2

-- ask // fetch Percent Effect given entry "CC(C)CNC(=O)[C@H]1CCS(=O)(=O)[C@@H]2CN(Cc3ccc(Cl)cc3)C[C@H]12"
-- reply -5.7

----------
Biological target: Shiga toxin 2 (Escherichia coli O157:H7) (UniProt P09385+P09386)
Assay: E. coli 0.157:H7 Shiga Toxin SOP - stx2 screening assay
Type: functional
Set-up: scale not given: direction of the effect not stated beside the values
Conditions: 30 µM
Property: Percent Effect (%)
Your answer is read as %, so omit the unit and give the number.

Reference set, count: 10
CC(C)(C)SCCCC(=O)N1CCC(Nc2cccnn2)CC1: -5.49
CC(C(=O)N1CCC(Nc2cccnn2)CC1)n1ccnc1 (stereo not drawn): 0.729
O=C(c1cc(F)ccc1F)C1CCN(C(=O)c2ccccn2)CC1: 18.1
Cc1ccc(N(C)C2CCN(C(=O)c3ccsc3)CC2)nn1: 1.6
CN1CCC/C1=N\S(=O)(=O)c1ccc(NC(=O)c2cccs2)cc1: -166
O=C(NCC1CC1)[C@H]1C[C@H]2OCC[C@H]2N(CCc2ccccc2)C1: 2.56
CC1(C)OCC(CNC(=O)c2cnn(-c3ccc(Cl)cc3)c2N)O1 (stereo not drawn): 47.4
Cc1oc(-c2nc(C#N)c(N(C)C)o2)cc1S(=O)(=O)N1CCCC1: -18.1
Cc1nn(C)cc1CCC(=O)N1CCCC(n2cncn2)C1 (stereo not drawn): 12.3
CCOc1ccccc1C(=O)NS(=O)(=O)c1ccc2c(c1)OCCCO2: 19.9

-- ask Enter Percent Effect (test system Shiga toxin 2 (Escherichia coli O157:H7) (UniProt P09385+P09386)) for "CN(C)[C@@H]1CCN(C(=O)c2ccsc2)[C@H]1Cc1cnn(C)c1"
-- reply -4.3

-- ask Enter Percent Effect (test system Shiga toxin 2 (Escherichia coli O157:H7) (UniProt P09385+P09386)) for COc1ccc(C2OC(COc3ccccc3Br)=NN2C(C)=O)cc1 (stereo not drawn)
-- reply -36.2

-- ask Enter Percent Effect (test system Shiga toxin 2 (Escherichia coli O157:H7) (UniProt P09385+P09386)) for "O=C(COCc1nc(-c2ccncc2)no1)N1CCCCCC1"
-- reply -22.7

----------
Molecular target: Aspartate--tRNA(Asp/Asn) ligase (Mycobacterium tuberculosis (strain ATCC 25618 / H37Rv)) (UniProt P9WFW3); also: in the data most compounds retested in dose-response had high values
Assay: Assay for Asp RNA synthetase-1 from Mycobacterium tuberculosis
Type: functional
Set-up: scale not given: direction of the effect not stated beside the values
Conditions: 30 µM
Percent Effect listing for selected molecules.
Your answer is read as %, so omit the unit and give the number.

Reference set, count: 5
CNc1cncc(C2CCCN2C(=O)c2ccc3oc(C)cc3c2)n1 (centres undefined): 0.779
CC(C)c1nc(C2CCCN(C(=O)Cc3cccnc3)C2)no1 (centres undefined): -2.44
CCc1cnc(CN(C)C2CCN(CCS(C)(=O)=O)C2)o1 (centres undefined): 0.585
Cn1c(Cn2cccn2)nnc1C1CCCN(c2ccncc2F)C1 (centres undefined): -0.254
O=C(O)c1ccc2ccc(N3CCN(CC4CC4)CC3)n2c1: -6.96

-- ask // fetch Percent Effect given entry COc1cccc(OCC2CCCN(C3CCN(C(C)=O)CC3)C2)c1 (centres undefined)
-- reply 4.72

-- ask // fetch Percent Effect given entry "CC(C)Cc1noc(CN2CCOCC2)n1"
-- reply -2.59

-- ask // fetch Percent Effect given entry Cc1cnn(CC(C)NCc2ccc(S(C)(=O)=O)cc2)c1 (centres undefined)
-- reply 1.18

----------
Target: Shiga toxin 2 (Escherichia coli O157:H7) (UniProt P09385+P09386)
Assay: E. coli 0.157:H7 Shiga Toxin SOP - stx2 screening assay
Format: functional
Set-up: scale not given: direction of the effect not stated beside the values
Conditions: 30 µM
Property: Percent Effect (%)
Your answer is read as %, so omit the unit and give the number.

CCN(C(=O)CCCOc1ccccc1F)c1ccncc1: 1.08
Cc1nc(C)n(CC2CCCCN2CC(=O)Nc2cccnc2)n1 (stereo unspecified): 7.21
CN(Cc1ccco1)C[C@H]1OC[C@@H]2CCN(Cc3nccs3)C[C@@H]21: -45.7

-- ask // fetch Percent Effect given entry "Cc1ccoc1C(=O)N1CCO[C@H]2[C@H](OCCN(C)C)CC[C@@H]21"
-- reply -12.2

-- ask // fetch Percent Effect given entry "CC(C)N1CCC(Cc2cncc(-c3ccccc3C(=O)O)n2)CC1"
-- reply 6.75

-- ask // fetch Percent Effect given entry "Cc1cc(N2CCC(N(C)C(=O)Nc3ccccc3)CC2)nc(C)n1"
-- reply -20.7

-- ask // fetch Percent Effect given entry "O=C(c1ccoc1)N1CC[C@H]2OCC[C@@]2(COc2ncccc2F)C1"
-- reply 3.1

-- ask // fetch Percent Effect given entry "COc1ccc(CN2CCC(O)CC2)c(OC)c1"
-- reply 7.95
